The reported measurements were obtained from the RNAGym collection of RNA variant scans (doi:10.7554/elife.90254).

Each record here notes measured self-cleavage.
B1: LINE1-full (parent)
chain: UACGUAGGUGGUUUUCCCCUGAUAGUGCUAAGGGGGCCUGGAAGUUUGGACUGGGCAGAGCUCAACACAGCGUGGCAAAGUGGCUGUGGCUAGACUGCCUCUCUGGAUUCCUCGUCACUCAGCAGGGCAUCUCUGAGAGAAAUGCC

- Variants of: B1
- assay: self-cleavage, relative activity (ratio to wild type); higher = more cleavage; in vitro, sequencing; the parent is a self-cleaving ribozyme
The response must contain the number and no unit.

INSERT INTO assay_data (mutant_label, measured_result) VALUES
  ('A59G C84A', 0.04),
  ('U29A U112C', 0.43),
  ('A79G U102G', 0.49);

The record that follows has no self-cleavage shown yet.
Challenge: // self-cleavage lookup, key: A22G A92G
Response given: 0.2
